test system: Enterococcus faecium ATCC 10541; experiment: Antibacterial activity, agar dilution method (MIC); type: cell-based; conditions: Enterococcus faecium, ATCC10541, pH 7, read-out: MIC (minimum growth inhibitory concentration), EF: Enterococcus faecium ATCC 10541
Observation type: MIC (µg/mL)
Respond numerically; units are µg/mL and should not be typed.

Prompt: Please report the recorded MIC for CC(=O)NCC(=O)OC1/C=C(\C)CCC2(CC(=O)NC(C)c3nc(cs3)/C=C\C=C\C1=O)[S+]([O-])SC(=O)C2(C)O (centres unmarked) .
Response: 0.041

Prompt: Please report the recorded MIC for C/C1=C\C(OC2CCCCO2)C(=O)/C=C/C=C\c2csc(n2)C(C)NC(=O)CC2(CC1)[S+]([O-])SC(=O)C2(C)O (centres unmarked) .
Response: 0.16

Prompt: Please report the recorded MIC for C/C1=C\C(O)C(=O)/C=C/C=C\c2csc(n2)C(C)N2C(=O)CC(C(C)(O)C(=O)SCOC(=O)C3CCC3)(CC1)[S+]2[O-] (centres unmarked) .
Response: 9.4

Prompt: Please report the recorded MIC for C/C1=C\C(O)C(=O)/C=C/C=C\c2csc(n2)C(C)N2C(=O)CC(C(C)(O)C(=O)SCOC(=O)C3CCCCC3)(CC1)[S+]2[O-] (centres unmarked) .
Response: 5.2

Prompt: Please report the recorded MIC for CC1=CC(OC(=O)c2ccccn2)C(=O)C=CC=Cc2csc(n2)C(C)N2C(=O)CC(C(C)(O)C(=O)SCc3oc(=O)oc3C)(CC1)[S+]2[O-] (centres unmarked) .
Response: 0.33
